- TARGET UNDER TEST: P-gp (Homo sapiens, UniProt P08183)
- Construct: purchased ThermoFisher Scientific GM0015; host or cells: Sf9 membrane vesicles
- Sequence (P08183 whole entry): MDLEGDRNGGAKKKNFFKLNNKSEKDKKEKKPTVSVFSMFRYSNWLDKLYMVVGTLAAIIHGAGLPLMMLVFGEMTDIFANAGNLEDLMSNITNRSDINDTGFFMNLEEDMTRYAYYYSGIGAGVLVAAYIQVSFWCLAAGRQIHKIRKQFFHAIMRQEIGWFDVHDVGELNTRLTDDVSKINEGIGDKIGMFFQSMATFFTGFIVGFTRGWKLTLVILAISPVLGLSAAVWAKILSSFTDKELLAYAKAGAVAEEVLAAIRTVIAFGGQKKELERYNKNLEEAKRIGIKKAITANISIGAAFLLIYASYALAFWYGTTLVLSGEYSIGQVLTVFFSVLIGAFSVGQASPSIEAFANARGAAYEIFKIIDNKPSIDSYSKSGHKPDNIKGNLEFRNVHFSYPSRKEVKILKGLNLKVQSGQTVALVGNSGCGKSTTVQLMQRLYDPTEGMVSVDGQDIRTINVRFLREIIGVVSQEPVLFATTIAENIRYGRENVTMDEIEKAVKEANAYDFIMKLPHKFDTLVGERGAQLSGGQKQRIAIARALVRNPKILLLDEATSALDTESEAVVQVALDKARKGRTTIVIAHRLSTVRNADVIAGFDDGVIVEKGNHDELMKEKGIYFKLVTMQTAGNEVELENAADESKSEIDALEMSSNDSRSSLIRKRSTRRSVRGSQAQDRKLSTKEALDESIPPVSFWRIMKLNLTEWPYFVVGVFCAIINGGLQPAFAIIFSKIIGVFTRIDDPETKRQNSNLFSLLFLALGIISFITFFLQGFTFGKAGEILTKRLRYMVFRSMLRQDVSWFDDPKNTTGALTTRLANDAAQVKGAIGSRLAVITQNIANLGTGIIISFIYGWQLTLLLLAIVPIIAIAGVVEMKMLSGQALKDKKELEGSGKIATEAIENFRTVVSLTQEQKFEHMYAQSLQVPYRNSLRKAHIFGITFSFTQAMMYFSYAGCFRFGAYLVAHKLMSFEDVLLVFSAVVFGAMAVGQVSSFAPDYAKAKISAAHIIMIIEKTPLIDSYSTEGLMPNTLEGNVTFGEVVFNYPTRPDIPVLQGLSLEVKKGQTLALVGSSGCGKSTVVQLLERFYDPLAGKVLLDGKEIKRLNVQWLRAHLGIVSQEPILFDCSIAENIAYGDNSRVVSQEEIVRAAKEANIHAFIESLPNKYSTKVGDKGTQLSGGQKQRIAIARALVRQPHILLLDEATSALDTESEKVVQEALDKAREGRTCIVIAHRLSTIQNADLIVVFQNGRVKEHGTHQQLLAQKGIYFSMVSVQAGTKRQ
- EXPERIMENT NOTES: Vesicular transport assay, 3H-NMQ uptake in P-gp membrane vesicles
- Assay type: biochemical
- TEST PARAMETERS: antioxidant 200 µM; uptake with DMSO set as 100%; mean ± SD, three replicates; membrane vesicles
# if value of % Uptake of 3H-NMQ P-gp reaches 80%, tag Met; if it stays below, tag Not met

COMPOUND: Oc1ccc2c(c1)OCO2 [Sesamol]
ANSWER LABEL: Met
--
COMPOUND: CCCOC(=O)c1cc(O)c(O)c(O)c1 [Propyl gallate]
ANSWER LABEL: Met
--
COMPOUND: NCCCC[C@H](N)C(=O)O [Lysine]
ANSWER LABEL: Not met
--
COMPOUND: O.O.O.O.O.O=S([O-])([O-])=S.[Na+].[Na+] [Sodium thiosulfate, pentahydrate]
ANSWER LABEL: Not met
--
COMPOUND: O=C(O)CC(O)(CC(=O)O)C(=O)O [Anhydrous citric acid]
ANSWER LABEL: Met
--
COMPOUND: C/C=C/C=C/C(=O)[O-].[K+] [Potassium sorbate]
ANSWER LABEL: Met
--
COMPOUND: CC(C)c1cc2c(c(O)c1O)[C@@]1(C(=O)O)CCCC(C)(C)[C@@H]1CC2 [Carnosic acid]
ANSWER LABEL: Not met
--
COMPOUND: C[N+](C)(C)[C@@H](Cc1c[nH]c(=S)[nH]1)C(=O)[O-] [Ergothioneine]
ANSWER LABEL: Not met
--
COMPOUND: O=C([O-])CN(CCN(CC(=O)[O-])CC(=O)O)CC(=O)O.[Na+].[Na+] [EDTA (edetate disodium), edetate disodium]
ANSWER LABEL: Not met
--
COMPOUND: O=C1OC(c2ccc(O)c(S(=O)(=O)O)c2)(c2ccc(O)c(S(=O)(=O)O)c2)c2c(Br)c(Br)c(Br)c(Br)c21 [Bromosulfophthalein, reference compound]
ANSWER LABEL: Not met

###

Entries and their % Uptake of 3H-CCK8 BCRP values follow.
- TARGET UNDER TEST: BCRP (Homo sapiens)
- Sequence (Q9UNQ0 whole entry): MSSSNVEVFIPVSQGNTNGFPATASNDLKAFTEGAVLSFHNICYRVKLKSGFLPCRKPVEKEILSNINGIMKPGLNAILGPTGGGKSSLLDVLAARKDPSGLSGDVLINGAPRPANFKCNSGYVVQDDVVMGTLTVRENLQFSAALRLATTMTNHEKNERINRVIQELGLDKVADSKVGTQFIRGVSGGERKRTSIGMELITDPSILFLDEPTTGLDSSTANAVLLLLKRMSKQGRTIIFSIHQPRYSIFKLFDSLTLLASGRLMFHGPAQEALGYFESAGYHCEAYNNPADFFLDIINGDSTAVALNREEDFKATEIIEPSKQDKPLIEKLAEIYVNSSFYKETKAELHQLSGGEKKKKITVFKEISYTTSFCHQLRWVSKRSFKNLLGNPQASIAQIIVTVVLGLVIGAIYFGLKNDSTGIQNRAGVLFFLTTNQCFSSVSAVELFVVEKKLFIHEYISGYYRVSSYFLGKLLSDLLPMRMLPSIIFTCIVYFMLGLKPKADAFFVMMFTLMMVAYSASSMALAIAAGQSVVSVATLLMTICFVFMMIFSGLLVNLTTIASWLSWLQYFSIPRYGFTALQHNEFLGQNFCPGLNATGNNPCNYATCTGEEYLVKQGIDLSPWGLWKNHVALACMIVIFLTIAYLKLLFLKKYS
- EXPERIMENT NOTES: Vesicular transport assay, 3H-CCK8 uptake in BCRP membrane vesicles
- Assay type: biochemical
- Parameters: purchased ThermoFisher Scientific GM0008; host or cells: Sf9 membrane vesicles
- TEST PARAMETERS: antioxidant 200 µM; uptake with DMSO set as 100%; mean ± SD, three replicates; membrane vesicles

MOLECULE: CCCCCCCCCCCCCCCC(=O)OC[C@H](O)[C@H]1OC(=O)C(O)=C1O [Ascorbyl palmitate (AP), Ascorbyl palmitate]
% Uptake of 3H-CCK8 BCRP, %: 50.9
--
MOLECULE: O=C1O[C@H]([C@H](O)CO)C(O)=C1O [Erythorbic acid]
% Uptake of 3H-CCK8 BCRP, %: 88.2
--
MOLECULE: Cc1cc(C(C)(C)C)c(O)c(C(C)(C)C)c1 [Butylated hydroxytoluene (BH), Butylated hydroxytoluene]
% Uptake of 3H-CCK8 BCRP, %: 102.8
--
MOLECULE: COc1cc(/C=C/C(=O)CC(=O)/C=C/c2ccc(O)c(OC)c2)ccc1O [Curcumin, reference compound]
% Uptake of 3H-CCK8 BCRP, %: 0.0
--
MOLECULE: CCCOC(=O)c1cc(O)c(O)c(O)c1 [Propyl gallate]
% Uptake of 3H-CCK8 BCRP, %: 86.5
